test system: SK-MEL-5 melanoma; assay: NCI tumour cell line growth inhibition, 48 h
Listed next: entries and their corresponding TGI.

Here are 8 compounds together with their reported answers.
COMPOUND	EXPERIMENTAL TARGET	REPORTED METRIC	OBSERVED
O=S(=O)(O)c1cccc2c(N=Nc3c(O)ccc4ccccc34)cccc12	SK-MEL-5 melanoma	TGI	> 100 µM
C[C@]12CCC(=O)C=C1CC[C@@H]1[C@@H]2CC[C@]2(C)C(=O)[C@H](n3ccnc3)C[C@@H]12	SK-MEL-5 melanoma	TGI	> 100 µM
C=C(C)CC1=C(OCC)C(OC)(OCC)C1=O (stereo unspecified)	SK-MEL-5 melanoma	TGI	> 100 µM
O=C(Cn1cc(-c2ccccc2)nn1)NC1CCCC1	SK-MEL-5 melanoma	TGI	> 100 µM
NS(=O)(=O)c1ccc(NNc2c3ccccc3nc3ccccc23)cc1	SK-MEL-5 melanoma	TGI	17.2 µM
N=C(N)c1ccc(-c2ccc(-c3ccc(Cl)cc3)o2)o1	SK-MEL-5 melanoma	TGI	3.21 µM
CCN(CC)CCOc1ccc(/C(=C(\C)Cc2ccc(OC)cc2)c2ccc(OC(=O)NCc3ccccc3)cc2)cc1	SK-MEL-5 melanoma	TGI	3.16 µM
CCCCCC(O)[C@H]1C(=O)C[C@@H](O[Si](C)(C)C(C)(C)C)[C@@H]1/C=C/CCOCc1ccccc1 (stereo partly specified)	SK-MEL-5 melanoma	TGI	37.9 µM

What does the data say about its TGI? Entry: COc1cccc2c(NNc3ccccc3)c3ccc([N+](=O)[O-])cc3nc12 > 100 µM

What does the data say about its TGI? Entry: COC(=O)N/N=C(/CCN1CCCC1)CC(c1ccccc1)c1c(O)c2ccccc2oc1=O (stereo unspecified) > 100 µM

What does the data say about its TGI? Entry: Cn1cccc1-c1cc(-c2cccs2)[nH]c(=O)c1C#N > 100 µM

What does the data say about its TGI? Entry: N#CC(c1ccccc1)N1CCCN(C(C#N)c2ccccc2)C1c1ccccc1O (stereo unspecified) > 100 µM

What does the data say about its TGI? Entry: CC1(C)CC[C@]2(C(=O)O)CC[C@]3(C)C(=CC[C@@H]4[C@@]5(C)C[C@H](O)[C@H](O)[C@@](C)(CO)C5=CC[C@]43C)[C@@H]2C1 > 100 µM

What does the data say about its TGI? Entry: Cc1cn(C2CC(O)C(Cn3cc(Cn4ncc(=O)[nH]c4=O)nn3)O2)c(=O)[nH]c1=O (stereo unspecified) > 100 µM

What does the data say about its TGI? Entry: COc1ccc(-c2cc(=O)c3c(OC)c(OC)c(OC)c(OC)c3o2)cc1OC > 100 µM

What does the data say about its TGI? Entry: Cc1ccc2c(c1)C(=O)C(Cc1ccccc1C(=O)O)C2 (stereo unspecified) > 100 µM
